Kindly state solubility for each of the entries shown.
protocol: physchem
conditionDescription: water, Solubility in water at room temperature
Procedure: To a stirred colorless solution of (S)-4-acetamidophenyl 2-(tert-butoxycarbonylamino)-4-(methylthio)butanoate (0.5 g, 1.3 mmol) in dioxane (10 mL) was added 40 mL of HCl in dioxane (4M).
Field format: number, assumed mg/mL, no unit text.

Ask | Quick one: solubility for CSCC[C@H](N)C(=O)Oc1ccc(NC(C)=O)cc1 [Compound (II-A)] ?
Reply | 500

Ask | Note, next up: CC(=O)Nc1ccc(OC(=O)C(N)CSSCC(NC(C)=O)C(=O)O)cc1 (stereo not drawn) [II-D]
Reply | 47
